# System name: Retinoic acid receptor RXR-alpha (Homo sapiens) (UniProt P19793)
# Sequence (P19793 whole entry, looked up): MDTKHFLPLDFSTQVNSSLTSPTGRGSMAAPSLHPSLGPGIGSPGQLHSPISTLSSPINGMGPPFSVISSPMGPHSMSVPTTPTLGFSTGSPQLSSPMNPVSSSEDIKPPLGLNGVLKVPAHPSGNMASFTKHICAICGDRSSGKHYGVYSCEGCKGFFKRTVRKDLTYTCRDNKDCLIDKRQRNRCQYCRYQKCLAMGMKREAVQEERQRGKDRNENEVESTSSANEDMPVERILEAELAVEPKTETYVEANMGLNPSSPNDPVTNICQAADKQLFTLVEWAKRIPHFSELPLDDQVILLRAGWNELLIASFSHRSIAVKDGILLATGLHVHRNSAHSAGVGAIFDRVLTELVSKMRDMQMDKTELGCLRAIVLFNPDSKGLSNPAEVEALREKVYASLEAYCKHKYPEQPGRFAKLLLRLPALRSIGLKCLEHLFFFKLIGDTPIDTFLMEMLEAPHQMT
# Assay method text: OT_NURR1_NURR1RXRa_1440: Odyssey Thera (OT) 24-hour HEK293T Protein Complementation Assay for Nurr1/retinoid X receptor (RXR) (AID 2283386)
Inconclusive results are not listed. The source made the active and inactive calls. The calls were made as follows: active = hit-call score of the fitted dose curve at least 0.9, where 1 is the maximum; inconclusive = response in the unintended direction; inactive = score below 0.9.
Quantity: outcome

Below, each entry is followed by its recorded outcome result.
OC[C@H]1O[C@@H]2O[C@H]3[C@H](O)[C@@H](O)[C@@H](O[C@H]4[C@H](O)[C@@H](O)[C@@H](O[C@H]5[C@H](O)[C@@H](O)[C@@H](O[C@H]6[C@H](O)[C@@H](O)[C@@H](O[C@H]7[C@H](O)[C@@H](O)[C@@H](O[C@H]1[C@H](O)[C@H]2O)O[C@@H]7CO)O[C@@H]6CO)O[C@@H]5CO)O[C@@H]4CO)O[C@@H]3CO :: inactive
C[C@@H](Oc1ccc(CNC(=O)c2cccnc2Oc2ccc3c(c2)OCO3)c(F)c1)C(=O)O :: inactive
Cc1nc(-c2ccccn2)ncc1C(=O)Nn1cc(C)c2cc(F)ccc21 :: inactive
NNC(=O)c1ccncc1 :: inactive

For each of the molecules below, note its outcome.
1. C=CN1CCCC1=O
2. Cn1cc[nH]c1=S
3. NC(N)=O

-- reply
1: inactive; 2: inactive; 3: inactive
